Test: Inhibition of yeast type-3 alpha-glucosidase using p-nitrophenyl-alpha-D-glucopyranoside as substrate after 30 mins
Set-up: species or system Saccharomyces cerevisiae
propertyLabel: pIC50
Quick note: pIC50 values are minus log10 of concentrations in mol/L.

Some molecules with recorded pIC50:
N#Cc1cc([N+](=O)[O-])ccc1-n1cc(C2(O)CCCCC2)nn1 : 4.30
OC1(c2cn(-c3ccccc3Cl)nn2)CCCCC1 : 3.43
COc1cccc(-n2cc(C3(O)CCCCC3)nn2)c1 : 3.61
O=[N+]([O-])c1ccc(-n2cc(-c3ccccc3)nn2)cc1 : 3.63
CC(=O)c1cccc(-n2cc(-c3ccccc3)nn2)c1 : 3.58

Here's the next entry for you.
I have this molecule here, Clc1ccccc1-n1cc(-c2ccccc2)nn1 , and I need its recorded pIC50. 4.24
